assay: Plasma and tissue concentrations after a single oral dose; assay type: in vivo; settings: mouse, liver; mice, 1 h after single oral dose 100 μmol/kg (40 mg/kg); read-out: liver concentration C1h
measured_quantity: concentration at 1 h (µM)
Write down the numeric answer in µM and omit the unit.

Report concentration at 1 h for CC(C)Oc1cc(NC(=N)c2ccccn2)ccc1-c1ccc(-c2ccccc2)o1.CS(=O)(=O)O [Compound 1b] please.
12.6

----------
test: Plasma and tissue concentrations after a single oral dose; format: in vivo; conditions: mouse, plasma; mice, 1 h after single oral dose 100 μmol/kg (40 mg/kg); read-out: plasma concentration C1h
measured_quantity: concentration at 1 h (nM)
Write down the numeric answer in nM and omit the unit.

Report concentration at 1 h for `CC(C)Oc1cc(NC(=N)c2ccccn2)ccc1-c1ccc(-c2ccccc2)o1.CS(=O)(=O)O` please.
1900
